Cited source for all entries: ChEMBL document CHEMBL3397028

Quick list: MIC per entry.
# System: Xanthomonas campestris
# assay text: Antimicrobial activity against Xanthomonas campestris after 18 hrs by broth micro dilution method
# Format: functional
property: MIC (µg/mL)

- chem smiles: "COc1ccccc1N1CCN(S(=O)(=O)c2cc3c(cc2C)OCC(=O)N3CC(=O)c2ccccc2)CC1"
  property: "MIC"
  reported measurement: 62.5
- chem smiles: "COc1ccccc1N1CCN(CCCNS(=O)(=O)c2ccc3c(c2)NC(=O)CO3)CC1"
  property: "MIC"
  reported measurement: 125
- chem smiles: "O=C1COc2ccc(S(=O)(=O)NCCCN3CCN(c4ccccc4F)CC3)cc2N1"
  property: "MIC"
  reported measurement: 62.5
- chem smiles: "Cc1cc2c(cc1S(=O)(=O)N1CCN(c3ccc(C(F)(F)F)cc3)CC1)NC(=O)CO2"
  property: "MIC"
  reported measurement: 500
- chem smiles: "Cc1cc2c(cc1S(=O)(=O)N1CCN(c3ccc(C(F)(F)F)cc3)CC1)N(CC(=O)c1cccs1)C(=O)CO2"
  property: "MIC"
  reported measurement: 125
- chem smiles: "COc1ccccc1N1CCN(CCCNS(=O)(=O)c2cc3c(cc2C)OCC(=O)N3)CC1"
  property: "MIC"
  reported measurement: 500
- chem smiles: "Cc1cc2c(cc1S(=O)(=O)N1CCN(c3ccc(C(F)(F)F)cc3)CC1)N(CC(=O)c1ccc([N+](=O)[O-])cc1)C(=O)CO2"
  property: "MIC"
  reported measurement: 125
- chem smiles: "O=C1COc2ccc(S(=O)(=O)NCCCN3CCN(c4ccccc4)CC3)cc2N1"
  property: "MIC"
  reported measurement: 500
- chem smiles: "Cc1cc2c(cc1S(=O)(=O)NCCCN1CCN(c3ccccc3)CC1)NC(=O)CO2"
  property: "MIC"
  reported measurement: 250
- chem smiles: "Cc1ccc(C(=O)CN2C(=O)COc3cc(C)c(S(=O)(=O)N4CCN(c5ccc(C(F)(F)F)cc5)CC4)cc32)cc1"
  property: "MIC"
  reported measurement: 125
- chem smiles: "COc1ccccc1N1CCN(S(=O)(=O)c2cc3c(cc2C)OCC(=O)N3)CC1"
  property: "MIC"
  reported measurement: 500
- chem smiles: "O=C1COc2ccc(S(=O)(=O)NCCCN3CCN(c4ccc(C(F)(F)F)cc4)CC3)cc2N1"
  property: "MIC"
  reported measurement: 125
- chem smiles: "COc1ccccc1N1CCN(S(=O)(=O)c2cc3c(cc2C)OCC(=O)N3CC(=O)c2ccc([N+](=O)[O-])cc2)CC1"
  property: "MIC"
  reported measurement: 125
- chem smiles: "COc1ccccc1N1CCN(S(=O)(=O)c2cc3c(cc2C)OCC(=O)N3CC(=O)c2ccc(-c3ccccc3)cc2)CC1"
  property: "MIC"
  reported measurement: 125
- chem smiles: "COc1ccccc1N1CCN(S(=O)(=O)c2cc3c(cc2C)OCC(=O)N3CC(=O)c2cccs2)CC1"
  property: "MIC"
  reported measurement: 250
- chem smiles: "COc1ccccc1N1CCN(S(=O)(=O)c2cc3c(cc2C)OCC(=O)N3CC(=O)c2ccc(C)cc2)CC1"
  property: "MIC"
  reported measurement: 125
- chem smiles: "COc1ccc(C(=O)CN2C(=O)COc3cc(C)c(S(=O)(=O)N4CCN(c5ccc(C(F)(F)F)cc5)CC4)cc32)cc1"
  property: "MIC"
  reported measurement: 250
- chem smiles: "COc1ccccc1N1CCN(S(=O)(=O)c2cc3c(cc2C)OCC(=O)N3CC(=O)c2ccc(Cl)cc2)CC1"
  property: "MIC"
  reported measurement: 125
- chem smiles: "CO[C@H]1/C=C/O[C@@]2(C)Oc3c(C)c(O)c4c(O)c(c(/C=N/N5CCN(C)CC5)c(O)c4c3C2=O)NC(=O)/C(C)=C\\C=C\\[C@H](C)[C@H](O)[C@@H](C)[C@@H](O)[C@@H](C)[C@H](OC(C)=O)[C@@H]1C"
  property: "MIC"
  reported measurement: 32
- chem smiles: "O=C1COc2ccc(S(=O)(=O)NCCCN3CCN(c4ccc(F)cc4)CC3)cc2N1"
  property: "MIC"
  reported measurement: 125
- chem smiles: "Cc1cc2c(cc1S(=O)(=O)N1CCN(c3ccc(C(F)(F)F)cc3)CC1)N(CC(=O)c1ccc(-c3ccccc3)cc1)C(=O)CO2"
  property: "MIC"
  reported measurement: 125
- chem smiles: "Cc1cc2c(cc1S(=O)(=O)NCCCN1CCN(c3ccc(C(F)(F)F)cc3)CC1)NC(=O)CO2"
  property: "MIC"
  reported measurement: 62.5
- chem smiles: "COc1ccc(C(=O)CN2C(=O)COc3cc(C)c(S(=O)(=O)N4CCN(c5ccccc5OC)CC4)cc32)cc1"
  property: "MIC"
  reported measurement: 62.5
- chem smiles: "Cc1cc2c(cc1S(=O)(=O)NCCCN1CCN(c3ccccc3F)CC1)NC(=O)CO2"
  property: "MIC"
  reported measurement: 250
- chem smiles: "Cc1cc2c(cc1S(=O)(=O)NCCCN1CCSCC1)NC(=O)CO2"
  property: "MIC"
  reported measurement: 250
- chem smiles: "Cc1cc2c(cc1S(=O)(=O)N1CCN(c3ccc(C(F)(F)F)cc3)CC1)N(CC(=O)c1ccc(Cl)cc1)C(=O)CO2"
  property: "MIC"
  reported measurement: 500
- chem smiles: "Cc1cc2c(cc1S(=O)(=O)N1CCN(c3ccc(C(F)(F)F)cc3)CC1)N(CC(=O)c1ccccc1)C(=O)CO2"
  property: "MIC"
  reported measurement: 250
